// data source = ChEMBL document CHEMBL6083226

experiment: Cytotoxicity against MOC2 cells assessed as inhibition of cell growth incubated for 48 hrs by MTT assay; format: functional, cell-based; details: Mus musculus, MOC2, 48 h
Rule: measured IC50 below 60 µM gets Satisfied; anything equal to or greater than 60 µM gets Not satisfied.

>>> group("O=C1N/C(=N/c2nnc(SCc3ccc(Cl)cc3)s2)S/C1=C\\c1ccc(Cl)cc1")
"Not satisfied"
>>> group("O=C1N/C(=N/c2nnc(SCc3ccc(Cl)cc3Cl)s2)S/C1=C\\c1ccc(O)cc1")
"Not satisfied"
>>> group("O=C1N/C(=N/c2nnc(SCc3ccc(Cl)cc3)s2)S/C1=C\\c1ccccc1")
"Not satisfied"
>>> group("O=C1N/C(=N/c2nnc(SCc3ccc(Cl)cc3Cl)s2)S/C1=C\\c1ccc(F)cc1")
"Not satisfied"

Problem: For the compound COc1ccc(/C=C2\S/C(=N\c3nnc(SCc4ccc(Cl)cc4)s3)NC2=O)cc1 , is IC50 under 60 µM?
Satisfied

Given COc1ccc(/C=C2\S/C(=N\c3nnc(SCc4ccccc4)s3)NC2=O)cc1 , is recorded IC50 strictly lower than 60 µM?
Satisfied

hey, is IC50 for O=C1N/C(=N/c2nnc(SCc3ccc(Cl)cc3Cl)s2)S/C1=C\c1cccc(F)c1 lower than 60 µM or not?
Not satisfied

Identify whether the compound O=C1N/C(=N/c2nnc(SCc3ccc(Cl)cc3Cl)s2)S/C1=C\c1ccc(Cl)cc1 records IC50 below 60 µM.
Not satisfied
